- experiment.description: in vitro
- measurement.setup: human, hela cells, % viability
Reported viability at 28.5 h, 10 µM values are given for each entry in this list.
# output: bare number, implied unit %

Recorded result, Cc1cc(C)c(C)c(S(=O)(=O)N2CCN(c3ncnc4sc(C)c(C)c34)CC2)c1C , viability at 28.5 h, 10 µM: 90.2

Summary for this compound, O=C(c1ccco1)N1CCCC(n2cnc3cc(F)ccc32)C1 (stereo not shown) : viability at 28.5 h, 10 µM is 94.8

get_value(item= O=C(O)/C(=C\c1ccc(Cl)cc1)NC(=O)c1ccccc1I , readout=viability at 28.5 h, 10 µM) returns 90.1

New cases:
Query CCOC(=O)N1CCC(NC(=O)c2cnn3c(C)c(Cc4ccccc4)c(C)nc23)CC1 yields viability at 28.5 h, 10 µM of 90.7

The compound listed as C[C@]12CN(C(=O)C3CC3)C[C@H]1NC(=O)c1ccccc1C2=O shows viability at 28.5 h, 10 µM equal to 102

Lab note: COc1ccc(C)cc1NC(=O)CN(c1ccccc1)S(=O)(=O)c1ccc(F)cc1 gave viability at 28.5 h, 10 µM of 99.1

Summary for this compound, COc1ccc(C)cc1-n1ccc(C(=O)NC(C)(C)C(N)=O)n1 : viability at 28.5 h, 10 µM is 94.1

Sure, the documented viability at 28.5 h, 10 µM for CC(=O)Nc1cccc(-n2ncc(-c3cccnc3)n2)c1 is 98.7

get_value(item= Cn1cccc1C(=O)Nc1cc2ccccc2c(N2CCNCC2)n1 [CBK036347T] , readout=viability at 28.5 h, 10 µM) returns 95.5

Recorded result, CC(C)(C)c1cc(C(=O)O)c(CN2CCOCC2)o1 , viability at 28.5 h, 10 µM: 88.7

###

- experiment.description: in vitro
- measurement.setup: human, hela cells, % viability
Attribute: viability at 28.5 h, 10 µM
Write the answer as a number in %, unit excluded.

Recorded viability at 28.5 h, 10 µM (compound CCC(Sc1nnc2c3ccccc3n(C)c2n1)C(=O)Nc1sc2c(c1C#N)CCCC2 (stereo not shown) [CBK263031] ): 92.6

Looking up CSc1ccccc1C(=O)Nc1sc2c(c1C#N)CCN(C(C)=O)C2 [CBK304183] , I found its viability at 28.5 h, 10 µM recorded as 55.3

# viability at 28.5 h, 10 µM (compound: O=C1N[C@]2(CCc3ccccc31)CN(Cc1ccsc1)C[C@H]2CO [CBK284793] ) is 90.7

Cc1nn(C)cc1-c1cncn1Cc1ccccc1CN(C)C [CBK281985] yielded viability at 28.5 h, 10 µM of 102

For Cc1nn(C)c(N2CCNCC2)c1NC(=O)c1cnccn1 [CBK050308T] the compound record lists viability at 28.5 h, 10 µM as 86.3

Others:
viability at 28.5 h, 10 µM recorded for this compound, O=C(Cn1cnc2c(c1=O)CCCC2)Nc1ccc(Cl)c(Cl)c1 [CBK304655] , is 102

Note to self: viability at 28.5 h, 10 µM recorded for COC(=O)c1cc(CN2CCCN(S(=O)(=O)c3ccc(-n4cnc(Cl)c4Cl)cc3)CC2)cn1C [CBK063080] was 85.2

The compound listed as C/C(=N\Nc1nc(-c2ccccc2)cs1)c1ccccc1 [CBK262104] shows viability at 28.5 h, 10 µM equal to 88.8

response.value for CCOC(=O)c1sc(-c2cccc(C(F)(F)F)c2)nc1O [CBK075064] (field: viability at 28.5 h, 10 µM) = 92

Reported viability at 28.5 h, 10 µM of Cc1ccc(Oc2ccc(S(=O)(=O)N3CCOCC3)cc2C(=O)O)cc1 [CBK286748] : 90.4

The compound identified as COc1cc(CNc2cc(-c3ccc(N4CCOCC4)cc3)ncn2)cc(OC)c1OC [CBK091174] registered its viability at 28.5 h, 10 µM at 93.9

Short answer for C[C@@H](Cn1nc2c(cc1=O)CCCC2)NC(=O)c1cccc(F)c1 [CBK284561] : viability at 28.5 h, 10 µM was 87.5

Entry under test: CCc1nccn1CC(=O)NC(Cc1ccsc1)c1nccs1 (stereo not shown) [CBK285139] . Its viability at 28.5 h, 10 µM was 111

###

Entries and their measured viability at 28.5 h, 10 µM follow.
- experiment.description: in vitro
- measurement.setup: human, hela cells, % viability
Please reply with the bare figure in % and do not write the unit itself.

Value of measured viability at 28.5 h, 10 µM for the entry Cc1ccc(COc2cc(C(=O)NCc3ccccn3)c3ccccc3n2)cc1 [CBK294403] : 112

Data point: Cc1cc(C)c(OCC(=O)Nc2ccc3oc(-c4cncc(Br)c4)nc3c2)c(Cl)c1 [CBK266634] ; viability at 28.5 h, 10 µM = 100

viability at 28.5 h, 10 µM reading for c1ccc(CCn2c3ccccc3c3nnc(SCc4ccc5nonc5c4)nc32)cc1 [CBK267516] : 97.4

Entry CN(Cc1ccc(-c2ccc(S(C)(=O)=O)cc2)cn1)C1CCN(C(=O)CC(C)(C)O)CC1 [CBK165684T] ; viability at 28.5 h, 10 µM = 93.1

The compound identified as COc1ccc(CCC(=O)Nc2ncn(Cc3cccc(C)c3)n2)cc1 [CBK288227] registered its viability at 28.5 h, 10 µM at 91.7

The value of viability at 28.5 h, 10 µM measured for the compound O=C(CC(CN1CCN(Cc2ccccn2)CC1)C(=O)O)Nc1ccc(F)cc1 (stereo not shown) [CBK286800] turned out to be 86.8

###

Attribute: % viability
- System: HeLa
- measurement.setup: bulk resorufin, single well, 28.5 h, 10 µM, Bulk resorufin fluorescence

// recorded % viability for CCCC(=O)N1CCC[C@@H](Cn2nc(-c3cccs3)ccc2=O)C1 [CBK282245] : 98%

###

- experiment.description: in vitro
- measurement.setup: human, hela cells, % viability
measurement.name: viability at 28.5 h, 10 µM (%)
Write it as a number; the unit % goes unstated.

Field: example entries. Status: answers known.
# compound O=C(CSCc1ccccc1Br)Nc1ccccc1-c1ccccc1 [CBK265959] ; its viability at 28.5 h, 10 µM = 88.4

Record COc1ccccc1C(=O)Nc1nc2ccc(NC(C)=O)cc2s1 [CBK287303] . Reported viability at 28.5 h, 10 µM: 88.3

Data point: COc1ccccc1-c1nnc(SCC(=O)O)n1-c1ccccc1 [CBK116149] ; viability at 28.5 h, 10 µM = 89.5

The measured viability at 28.5 h, 10 µM associated with Cc1nc(C2CC(=O)N(Cc3ccccn3)C2)n(-c2ccccc2F)n1 (centres unmarked) [CBK306895] reads 89.6

Entry CN(CC(=O)O/N=C(\N)c1cccnc1)S(=O)(=O)c1ccccc1 [CBK267684] ; viability at 28.5 h, 10 µM = 94.3

Shifting focus to the compound that follows.
Entry CS(=O)(=O)c1ccc(CN2CCOC[C@H]2c2nc(-c3ccc(F)cc3)c[nH]2)cc1 [CBK289295] ; viability at 28.5 h, 10 µM = 89.4

###

- experiment.description: in vitro
- measurement.setup: human, hela cells, % viability
Each item that follows carries a reported viability at 28.5 h, 10 µM.
The response must be a number in % with no trailing unit.

GET /value?item= O=C(Nc1ccccn1)c1c(O)n(Cc2ccccc2)c2ccccc2c1=O &field=viability at 28.5 h, 10 µM returns 90.3

Others:
Lab note: COc1cc(S(=O)(=O)N2CCN(S(=O)(=O)c3cccc([N+](=O)[O-])c3)CC2)ccc1Cl gave viability at 28.5 h, 10 µM of 89.6

Memo: FC(F)(F)c1ccc2c(c1)N(CCCN1CCCC1)c1ccccc1S2 [CBK015520C] , reported viability at 28.5 h, 10 µM: 88

Recorded viability at 28.5 h, 10 µM (molecule CC(C(=O)NC1CCCN(CC(F)(F)F)C1)n1cnc2ccccc21 (stereo not shown) ): 96.6

Memo: O=c1c2ccccc2nc2n1CCN(Cc1ccc(F)cc1)CC2 , reported viability at 28.5 h, 10 µM: 96.9

The recorded viability at 28.5 h, 10 µM for CC(C(=O)Nc1ccc(S(N)(=O)=O)cc1)N(C)Cc1ccccc1F (stereo not shown) is 105

CCCS(=O)(=O)n1c(=O)n(CCc2c[nH]c3ccccc23)c2ccccc21 has a reported viability at 28.5 h, 10 µM of 87.8

Record summary for Cc1ccc(S(=O)(=O)Cc2ccc(C(=O)Nc3cccc(-c4cnc5ccccc5n4)c3)cc2)cc1 : reported viability at 28.5 h, 10 µM = 89.3

The molecule CCC(C)N(C)CCNC(=O)Nc1ccc(F)c(-n2nnnc2C)c1 (stereo not shown) showed viability at 28.5 h, 10 µM equal to 101

The recorded viability at 28.5 h, 10 µM for entry NC(=O)CN1CCCc2ccccc21 equals 90

viability at 28.5 h, 10 µM in this record for O=C(O)C1CCCCN1S(=O)(=O)c1ccc(Cl)cc1 (stereo not shown) : 91.6

Reported viability at 28.5 h, 10 µM ( c1ccc2c(c1)CCCN2Cc1nc2ccccc2[nH]1 ) = 107

Record Cc1cc(I)ccc1NC(=O)CCN1C(=O)c2cccc([N+](=O)[O-])c2C1=O , field viability at 28.5 h, 10 µM: 88.3

Per the record, COc1ccccc1-c1nccnc1N1CCN(c2ccncc2)CC1 has viability at 28.5 h, 10 µM of 87.8
